Listing: growth of selected molecules
Tested on: NCI-H226 lung
Assay: NCI-60 one-dose screen, 48 h (100 = growth as untreated, 0 = no growth, -100 = all killed)
Details: 10 µM unless noted
The panel holds about 83,000 compounds, 20% with a hit somewhere; the sample as a whole holds those more often.
Numbers only here, please. The scale is %.

MOLECULE	TARGET OR SYSTEM	REPORTED MEASUREMENT
CCCn1cnc2c(c1=N)C(c1ccc(Cl)cc1)c1sc3c(F)cccc3c1O2 (stereo unspecified)	NCI-H226 lung	85.5
COC(=O)c1c(C)nc(C)c2c1C(=O)C(Br)=C(NCCN1CCOCC1)C2=O	NCI-H226 lung	107
C#C[C@]1(O)CC[C@H]2[C@@H]3CC=C4c5sc(-c6ccccc6)nc5CC[C@]4(C)[C@H]3CC[C@@]21C	NCI-H226 lung	99.6
O=[N+]([O-])c1ccc(N/N=C\c2cc(Cl)ccc2O)nc1	NCI-H226 lung	100
Cc1ccc2c(n1)C[C@H](C(C)(C)O)CC[C@H]2C	NCI-H226 lung	100
CCOc1ccc(-c2cc(C3(S(=O)(=O)c4ccc(C)cc4)CC=CC3)on2)cc1	NCI-H226 lung	47.7
C=C(C)[C@@H]1CCC[C@]2(C(=O)OC)CC[C@]3(C)[C@@H](CC[C@@H]4[C@@]5(C)CCCNC(C)(C)[C@@H]5CC[C@]43C)[C@@H]12	NCI-H226 lung	84.4
COc1ccc(N2C(=O)/C(=C/C(Cl)=C/c3ccc([N+](=O)[O-])cc3)SC2=S)cc1	NCI-H226 lung	-31
COc1ccc2c(c1)C(c1c[nH]c3ccccc13)(c1c[nH]c3ccccc13)CCO2	NCI-H226 lung	64.1
Cc1ccc(-c2nnc(SCc3nc(N)nc(Nc4ccccc4F)n3)n2-c2ccccc2)cc1	NCI-H226 lung	80.4

Could you now consider this next molecule?
Supply recorded growth for "Cc1nc2ccccc2c(/C=C/c2ccc(Br)cc2)c1C(=O)/C=C/c1ccccc1" here.
25.1

====

System: M14 melanoma
Test: NCI-60 one-dose screen, 48 h (100 = growth as untreated, 0 = no growth, -100 = all killed)
Conditions: 10 µM unless noted
The panel holds about 83,000 compounds, 20% with a hit somewhere; the sample as a whole holds those more often.
Listing: growth of selected molecules
Numbers only here, please. The scale is %.

These solved cases illustrate the format of a correct answer.
MOLECULE	U	growth
COc1cccc(/C=C/C(=O)/C=C(/C=C/c2cccc(OC)c2OC)OB(F)F)c1OC	%	61.7
CC(C)c1nc(N(C)S(C)(=O)=O)nc(-c2ccc(F)cc2)c1/C=C/C(=O)C[C@@H](O)CC(=O)O	%	102
COC(=O)[C@@H](Cc1c[nH]c2ccccc12)NC[C@@H](O)CN1C(=O)/C(=C\c2cc(OC)c(OC)c(OC)c2)c2ccccc21	%	64.6

Could you now consider this next molecule?
Supply recorded growth for "O=C(/C=C/c1cccc([N+](=O)[O-])c1)c1ccc(Nc2nc(Nc3ccc(F)cc3)nc(Nc3ccc(Cl)cc3)n2)cc1" here.
92.5

====

Test system: MDA-MB-231 breast
Assay: NCI-60 one-dose screen, 48 h (100 = growth as untreated, 0 = no growth, -100 = all killed)
Details: 10 µM unless noted
About 83,000 compounds went through this panel and 20% of them were active in at least one assay; those are over-represented in the sample as a whole.
Please use YES whenever growth is not below 80%, and NO whenever it is.

Consider the worked cases shown below.
COMPOUND	LABEL VALUE
Nc1ccc(N)c2c1C(=O)c1cccc([N+](=O)[O-])c1C2=O	NO
CS(=O)(=O)c1ccc(/C(=N/NC(N)=S)c2ccc(F)cc2)cc1	YES
O=C1NC(=O)C(=Cc2cc(-c3ccc(Cl)cc3)n(-c3ccccc3)n2)C(=O)N1	YES
CC(=O)Oc1ccccc1C(=O)N(Cc1ccc2c(Cl)cc(Cl)c(O)c2n1)c1ccccc1	NO
O=C(N/N=C/c1ccccc1Cl)c1ccccc1Nc1ccnc(C(F)(F)F)c1	NO
Nc1ncc(-c2ccc3ncnc(N4CCc5cc(F)c(Cl)cc54)c3c2)cc1C=O	NO
O=C(OCc1ccc2c(Br)cc(Br)c(O)c2n1)N1CCN(C(=O)c2cc3ccccc3[nH]2)CC1	NO
COc1ccc(-c2nc3cc(C(=O)NC4CCCCC4)ccc3n2C2CCCCC2)cc1	YES
C=C(C)[C@@H]1CCC[C@]2(C(=O)OC)CC[C@]3(C)[C@@H](CC[C@@H]4[C@@]5(C)CCCNC(C)(C)[C@@H]5CC[C@]43C)[C@@H]12	YES
Cc1[nH]c(C2CC(c3ccc(C(F)(F)F)c(F)c3)=NN2C)c(C)c1C(=O)NCC(F)(F)F (stereo not given)	YES

// inclusive: growth at least 80%? input: CCCC[N+]1(C)CCN=C1Cc1ccccc1 (stereo not given)
YES

// inclusive: growth at least 80%? input: "Clc1ccc(C2=Nn3c(nnc3-c3cc(Cl)cc(Cl)c3Cl)SC2)cc1"
NO

// inclusive: growth at least 80%? input: COc1cc2c(cc1-c1c(C)noc1C)ncc1nc(C3CCOCC3)n(C3CCC(OC(F)F)CC3)c12 (stereo not given)
NO

// inclusive: growth at least 80%? input: "Cc1cccc(C)c1NC(=O)Nc1ccccc1"
YES
